- TARGET SYSTEM: IN v1 variant RBD (R319-F541 with L452R, E484Q) (SARS-CoV-2, UniProt P0DTC2 319-541)
- ASSAY: lateral flow NC50, RBD-AuNP vs immobilised ACE2

BINDER	RESULT UNITS	IC50
1035419 (antibody, V domains shown) VH: QVQLKQSGAELVRPGASVKLSCKTSGYIFTSYWIHWIKQRSGQGLEWIARIYPGTGSTYNNEKFKGKATLTADKSSSTAYMQLSSLKSEDSAVYFCARGEDNLYFYAMDYWGQGTSVTVSS VL: NIVLTQSPASLAVSLGQRATISCRASESVDSYGASFMHWCQQKPGQPPKLLIYLASNLESGVPARFSGSGSRTDFTLTIDPVEADDAATYYCQQNYEDPWTFGGGTKLEIK	µg/mL	16.5
1035740 (antibody, V domains shown) VH: EVLLQQSGPELVKPGASVKIPCKASGYTFTDYNMDWVKQSHGKSLEWIGDINPNNGFTIYNQKFKGKATLTVDKSSSTAYMELRSLTSEDTAVYYCAREGYGNYFDYWGQGTTLTVSS VL: DVLLTQSPAILSVSPGERVSFSCRASQSIGTSLHWYQQRTNGSPRLLIKYVSESISGIPSRFSGSGSGTDFTLSINSVESEDIADYYCQQSSSWPTTFGAGTKLELK	µg/mL	1.79
1035709 (antibody, V domains shown) VH: EVQLQQSGPELVKPGASVKISCKTSGYTFTEYTMHWVKQSHGKSLEWIGGINPNIVDTGYNQKFKGKATLTVDKSSSTAYMELRSLTSEDSAVYYCARDGYPLYYAMDYWGQGTSVTVSS VL: DIQMTQSPSSLSASLGERVSLTCRASQEISGYLSWLQQKPDGTIKRLIYAASTLDSGVPKRFSGSRSGSDYSLTISSLESEDFADYYCLQYASYPWTFGGGTKLEIK	µg/mL	0.66
